Here the recorded pIC50 is given for each entry.
biological target: Human V1b receptor (Homo sapiens (Human), UniProt P47901); assay: Binding Test for V1b Receptor ([3H]AVP, crude membrane preparation of 293FT cells); conditions: inhibition of [3H]AVP binding (0.4 to 1 nmol/L), room temperature, 60 minutes
Sequence (P47901 whole entry): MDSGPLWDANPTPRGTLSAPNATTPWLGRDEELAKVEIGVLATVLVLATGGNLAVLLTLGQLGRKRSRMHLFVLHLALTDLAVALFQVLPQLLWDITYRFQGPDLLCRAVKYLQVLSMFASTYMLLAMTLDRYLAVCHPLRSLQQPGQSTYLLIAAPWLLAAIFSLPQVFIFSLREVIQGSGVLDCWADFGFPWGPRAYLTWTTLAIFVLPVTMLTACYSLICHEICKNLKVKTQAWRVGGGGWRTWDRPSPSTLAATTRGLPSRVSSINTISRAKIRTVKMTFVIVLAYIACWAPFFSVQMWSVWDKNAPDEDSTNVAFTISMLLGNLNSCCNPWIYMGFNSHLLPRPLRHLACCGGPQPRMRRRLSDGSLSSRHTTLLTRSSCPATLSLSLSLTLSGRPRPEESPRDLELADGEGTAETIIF
pIC50 is a log-scale quantity: -log10 of the concentration expressed in molar.

Reference set, count: 3
{"compound": "COc1cccc(-c2nc(-c3ccc(CCN4CCOCC4)cn3)nn2CC(=O)NC(C)(C)C)c1", "target-desc": "Human V1b receptor (Homo sapiens (Human), UniProt P47901)", "quantitative-result": 8.18}
{"compound": "COc1cccc(-c2nc(-c3ccc(CC(C)N4C5CCC4COC5)cc3)nn2CC(=O)NC(C)C)c1 (stereo not shown)", "target-desc": "Human V1b receptor (Homo sapiens (Human), UniProt P47901)", "quantitative-result": 9.37}
{"compound": "CC(C)NC(=O)Cn1cc(-c2ccc(CCN3CCCCC3)cc2)nc1-c1cccc(Cl)c1", "target-desc": "Human V1b receptor (Homo sapiens (Human), UniProt P47901)", "quantitative-result": 7.82}

**Q:** Give its pIC50 value. Item: COc1cccc(-n2c(CC(=O)NC(C)(C)C)nn(-c3ccc(CCN4C5CCC4COC5)cc3)c2=O)c1
**A:** 8.26

---

target: Human V1b receptor (Homo sapiens (Human), UniProt P47901); test: Binding Test for V1b Receptor ([3H]AVP, crude membrane preparation of 293FT cells); conditions: inhibition of [3H]AVP binding (0.4 to 1 nmol/L), room temperature, 60 minutes
Rule: IC50 below 5 nM gives TRUE, anything at or above gives FALSE.

These solved cases illustrate the format of a correct answer.
{"molecule": "CC(C)NC(=O)Cc1oc(-c2ccc(CCN3CCOCC3)cc2)nc1-c1cccc(Cl)c1 [Example C-11]", "target-desc": "Human V1b receptor (Homo sapiens (Human), UniProt P47901)", "class-label": "TRUE"}
{"molecule": "CC(C)NC(=O)Cc1nn(-c2ccc(CCN3CCCCC3)cc2)c(=O)n1-c1ccc(F)c(Cl)c1 [Example D-44]", "target-desc": "Human V1b receptor (Homo sapiens (Human), UniProt P47901)", "class-label": "FALSE"}
{"molecule": "CC(C)NC(=O)Cc1nn(-c2ccc(CCN3CCCCC3)cc2)cc1-c1cccc(Cl)c1 [Example C-01]", "target-desc": "Human V1b receptor (Homo sapiens (Human), UniProt P47901)", "class-label": "FALSE"}

Now take the following molecule into account.
**Q:** Please check: IC50 for CC(C)NC(=O)Cc1nn(-c2ccc(CCN3CCOCC3)cc2)c(=O)n1-c1cccc(Cl)c1 [Example D-01] , strictly under 5 nM or not?
**A:** FALSE

---

molecular target: Human V1b receptor (Homo sapiens (Human), UniProt P47901); assay: Binding Test for V1b Receptor ([3H]AVP, crude membrane preparation of 293FT cells); details: inhibition of [3H]AVP binding (0.4 to 1 nmol/L), room temperature, 60 minutes
pIC50: −log10 of the molar value.
Here the recorded pIC50 is given for each entry.

Reference set, count: 7
{"molecule": "COc1cc(-n2c(CC(=O)NC(C)C)nn(-c3ccc(CCN4C5CCC4COC5)cn3)c2=O)ccc1F [Example D-38]", "pIC50": "7.00 to 8.00"}
{"molecule": "COC1CCCN(CCc2ccc(-n3nc(CC(=O)NC(C)C)n(-c4cccc(Cl)c4)c3=O)cc2)C1 [Example D-50]", "pIC50": "6.00 to 7.00"}
{"molecule": "COc1cc(-c2nc(-c3ccc(CCN4CCC(OC)CC4)cc3)cn2CC(=O)NC(C)C)ccc1F [Example A-24]", "pIC50": "7.00 to 8.00"}
{"molecule": "CC(C)NC(=O)Cn1nc(-c2ccc(CCN3CCCCC3)cc2)cc1-c1cccc(Cl)c1 [Example C-06]", "pIC50": 7.77}
{"molecule": "COc1cccc(-c2nc(-c3ccc(CCN4CC=CCC4)cc3)nn2CC(=O)NC(C)C)c1 [Example B-22]", "pIC50": "7.00 to 8.00"}
{"molecule": "CC(C)NC(=O)Cc1nn(-c2ccc(CCN3C4CCC3COC4)cn2)c(=O)n1-c1cccc(Cl)c1 [Example D-02]", "pIC50": "7.00 to 8.00"}
{"molecule": "CC(C)NC(=O)Cc1cc(-c2ccc(CCN3CCOCC3)cc2)nn1-c1cccc(Cl)c1 [Example C-05]", "pIC50": 7.68}

Then this molecule:
**Q:** Give its pIC50 value. Item: COc1cccc(-c2nc(-c3ccc(CCN4CCOCC4)cc3)cn2CC(=O)NC(C)C)n1 [Example A-29]
**A:** 7.57

---

target: Human V1b receptor (Homo sapiens (Human)); assay: Binding Test for V1b Receptor ([3H]AVP, crude membrane preparation of 293FT cells); conditions: inhibition of [3H]AVP binding (0.4 to 1 nmol/L), room temperature, 60 minutes
Here the recorded IC50 is given for each entry.

{"compound": "CC(C)NC(=O)Cn1cc(C(=O)N2CCC(CCN3CCOCC3)C2)nc1-c1cccc(Cl)c1 (stereo not shown)", "target-desc": "Human V1b receptor (Homo sapiens (Human))", "result": "0.1 to 1 µM"}
{"compound": "CC(C)NC(=O)Cc1nn(-c2ccc(CCN3CCOCC3)cn2)c(=O)n1-c1ccc(F)c(Cl)c1", "target-desc": "Human V1b receptor (Homo sapiens (Human))", "result": "0.01 to 0.1 µM"}
{"compound": "COc1cccc(-c2nc(-c3ccc(CCN4CCC(C(F)(F)F)CC4)cc3)nn2CC(=O)NC(C)C)c1", "target-desc": "Human V1b receptor (Homo sapiens (Human))", "result": "0.01 to 0.1 µM"}

Then this compound:
**Q:** Give its IC50 value. Item: COc1cccc(-c2nc(-c3ccc(CCN4CCCC(OC)C4)cc3)nn2CC(=O)NC(C)C)c1 (stereo not shown)
**A:** 0.01 to 0.1 µM

---

molecular target: Human V1b receptor (Homo sapiens (Human), UniProt P47901); test: Binding Test for V1b Receptor ([3H]AVP, crude membrane preparation of 293FT cells); conditions: inhibition of [3H]AVP binding (0.4 to 1 nmol/L), room temperature, 60 minutes
experimental-endpoint: IC50 (µM)
Output spec: scalar in µM, unitless text.

{"line-notation": "COc1cccc(-c2nc(-c3ccc(CCN4CCOCC4)cc3)cn2CC(=O)NC(C)C)c1", "output-unit": "µM", "quantitative-result": 0.01}
{"line-notation": "COc1cc(-c2nc(-c3ccc(CCN4CCOCC4)cc3)cn2CC(=O)NC(C)C)ccc1F", "output-unit": "µM", "quantitative-result": 0.0037}
{"line-notation": "COc1cccc(-c2nc(-c3ccc(CCN4CCOCC4)cn3)nn2CC(=O)NC(C)C)c1", "output-unit": "µM", "quantitative-result": 0.031}
{"line-notation": "CC(C)NC(=O)Cn1cc(-c2ccc(CCN3CCOCC3)cn2)nc1-c1cccc(Cl)c1", "output-unit": "µM", "quantitative-result": 0.0034}

Then this compound:
**Q:** Give its IC50 value. Item: CC(C)NC(=O)Cc1oc(-c2ccc(CCN3CCCCC3)cc2)nc1-c1cccc(Cl)c1
**A:** 0.0065

---

Target: Human V1b receptor (Homo sapiens (Human))
Test: Binding Test for V1b Receptor ([3H]AVP, crude membrane preparation of 293FT cells)
Conditions: inhibition of [3H]AVP binding (0.4 to 1 nmol/L), room temperature, 60 minutes
Experimental: Binding Test for V1b Receptor Human V1b receptor was transiently expressed in 293FT cells (Invitrogen). […] The GF/C filter was dried and after adding a scintillator, the residual radioactivity on the filter was measured using TopCount (PerkinElmer Inc.). The radioactivity in the presence of unlabeled AVP at […] was defined as 0%, and the radioactivity in the absence of unlabeled AVP was defined as 100%. […]
experimental-endpoint: pIC50
pIC50 is a log-scale quantity: -log10 of the concentration expressed in molar.

Reference set, count: 4
{"molecule": "CC(C)NC(=O)Cn1cc(-c2ccc(CCN3CCOCC3)cc2)nc1-c1cccc(Cl)c1", "pIC50": 8.43}
{"molecule": "CC(C)NC(=O)Cc1nn(-c2ccc(CC(C)N3C4CCC3COC4)cc2)c(=O)n1-c1cccc(Cl)c1 (stereo not drawn)", "pIC50": 8.82}
{"molecule": "CC(C)NC(=O)Cc1nn(-c2ccc(CC(C)N3C4CCC3COC4)cc2)c(=O)n1-c1ccc(F)c(Cl)c1 (stereo not drawn)", "pIC50": 9.21}
{"molecule": "COc1cc(-c2nc(-c3ccc(CCN4C5CCC4COC5)cc3)cn2CC(=O)NC(C)C)ccc1F", "pIC50": 8.59}

**Q:** API: value(readout=pIC50, system=Human V1b receptor (Homo sapiens (Human))) for record CC(C)NC(=O)Cc1nc(-c2ccc(CCN3CCOCC3)cc2)sc1-c1cccc(Cl)c1
**A:** 7.85

**Q:** API: value(readout=pIC50, system=Human V1b receptor (Homo sapiens (Human))) for record CC(C)NC(=O)Cc1nn(-c2ccc(CCN3C4CCC3COC4)c(F)c2)c(=O)n1-c1cccc(Cl)c1
**A:** 8.12

**Q:** API: value(readout=pIC50, system=Human V1b receptor (Homo sapiens (Human))) for record COc1cccc(-c2nc(-c3ccc(CCN4CCOCC4)cc3)nn2CC(=O)NC(C)C)c1
**A:** 8.28

**Q:** API: value(readout=pIC50, system=Human V1b receptor (Homo sapiens (Human))) for record CC(C)NC(=O)CC1=C(c2cccc(Cl)c2)C(=O)N(c2ccc(CCN3CCOCC3)cc2)C1=O
**A:** 8.05

**Q:** API: value(readout=pIC50, system=Human V1b receptor (Homo sapiens (Human))) for record COc1cccc(-n2c(CC(=O)NC(C)(C)C)nn(-c3ccc(CCN4CCOCC4)cc3)c2=O)c1
**A:** 8.34

**Q:** API: value(readout=pIC50, system=Human V1b receptor (Homo sapiens (Human))) for record CC(C)(C)NC(=O)Cc1nn(-c2ccc(CCN3C4CCC3COC4)cc2)c(=O)n1-c1ccc(F)c(Cl)c1
**A:** 8.54
